- System: BT-549
- Test Name: NCI tumour cell line growth inhibition, 48 h
The source made the active and inactive calls. Cut-off read from the data, not from the text of the source: active = GI50 up to about 1.1 µM and inactive = higher.
Consider the following compounds; for each one, report its GI50.

Look over these answered cases.
QUERY: GET /values?readout=GI50&item= C=C(C)[C@@H](O)[C@H](O)C[C@H](C)C1CC[C@]2(C)C1=CC[C@@H]1[C@@]3(C)CC[C@@H](OC(C)=O)C(C)(C)[C@@H]3C[C@@H](OC3OC(COC(C)=O)C(O)C(O)C3O)[C@]12C (stereo partly drawn)
RESULT: 3.33 µM (inactive)

QUERY: I would be grateful if you could share the reported GI50 for O=C(O)c1ccccc1/C=N\N=C1NCCN1 .
RESULT: 49.9 µM (inactive)

QUERY: GI50 lookup needed for CC(Cn1c2c(c3cc(O)ccc31)CCc1ccc(O)cc1-2)N(C)C (stereo not drawn) , thanks.
RESULT: 16.3 µM (inactive)

QUERY: I have this compound here, Cc1ccc(Nc2nc(O)c3[nH]cnc3n2)cc1CO , and I need its recorded GI50.
RESULT: 14.9 µM (inactive)

QUERY: Quick check: GI50 of C[n+]1c(-c2ccc(/C=N/NC(=O)C(=O)N/N=C/c3ccc(-c4cn5ccccc5[n+]4C)cc3)cc2)cn2ccccc21 ?
RESULT: > 100 µM (inactive)

QUERY: # GI50 lookup, item O=c1c2cc(S(=O)(=O)O)ccc2nc(COc2ccc(Oc3ccc(Cl)cc3Cl)cc2)n1C(=S)Nc1ccc(Cl)cc1
RESULT: 19.6 µM (inactive)

Could you tell me GI50 for each of these compounds? They are listed below.
1. COc1ccc(/C=N/NC(=O)C2=C(N)N(c3ccccc3)C(=C(C#N)C#N)S2)cc1
2. COc1cc(/C=C2\C[C@H]3[C@@H]4CC=C5C[C@@H](N6CCCC6)CC[C@]5(C)[C@H]4CC[C@]3(C)[C@H]2OC(C)=O)cc(OC)c1OC
3. CC(C)CC1NC(=O)CCC(NC(=O)C(Cc2ccc(O)cc2)NC(=O)OCc2ccccc2)C(=O)NC(Cc2ccccc2)C(=O)NC(Cc2ccccc2)NC1=O (stereo not drawn)
4. NC(=O)NC1NC(=O)NC1=O (stereo not drawn)
5. CC12CCC(CC1(Cl)Cl)C2 (stereo not drawn)
6. O=C(O)CSSCC(=O)O
7. Cc1ccc(S(=O)(=O)NC(=O)NC(Cc2ccc(O)c(O)c2)C(=O)O)cc1 (stereo not drawn)

RESULT:
> 100 µM (inactive)
14.9 µM (inactive)
> 100 µM (inactive)
> 100 µM (inactive)
> 100 µM (inactive)
> 100 µM (inactive)
> 100 µM (inactive)
